# Tested on: primary human T cells
# Assay overview: T cell activation assay, CD25 and CD69 staining (flow cytometry)
# Type: cell-based
# Condition details: 1.4 nM; fold-change of response relative to baseline
Parameter: CD25 Staining Anti-CD3/Anti-CD28 Stimulation
Enter the number alone.

### Prompt Dear colleague, I am looking for the recorded CD25 Staining Anti-CD3/Anti-CD28 Stimulation of the following compound: Nc1cccc2c1CN(C1CCC(=O)NC1=O)C2=O (centres unmarked) [Lenalidomide, lenalidomide, reference compound]
### Response 1.26

### Prompt Try the compound CN1CCN([C@@H]2CCCN(c3cnc(C(N)=O)c(Nc4ccc(N5CCN(C[C@@H]6[C@H]7CN(c8ccc9c(c8)C(=O)N(C8CCC(=O)NC8=O)C9=O)C[C@@H]67)CC5)cc4)n3)C2)C1=O (some centres unmarked) [Compound 38]
### Response 1.05

### Prompt Try the compound CN1CCN([C@@H]2CCCN(c3cnc(C(N)=O)c(Nc4ccc(C5CCN(C[C@H]6CCN(c7ccc8c(c7)C(=O)N(C7CCC(=O)NC7=O)C8=O)C6)CC5)cc4)n3)C2)C1=O (some centres unmarked) [Compound 44]
### Response 1.25

### Prompt Try the compound CN1CCN([C@@H]2CCCN(c3cnc(C(N)=O)c(Nc4ccc(OCCCNc5ccc6c(c5)C(=O)N(C5CCC(=O)NC5=O)C6=O)cc4)n3)C2)C1=O (some centres unmarked) [Compound 64]
### Response 1.17

### Prompt Try the compound CN1CCN([C@H]2CCCN(c3cnc(C(N)=O)c(Nc4ccc(C5CCN(CC6CCN(c7ccc(C(=O)NC8CCC(=O)NC8=O)nc7)CC6)CC5)cc4)n3)C2)C1=O (some centres unmarked) [Compound 130]
### Response 1.02

### Prompt Try the compound CN1CCN([C@H]2CCCN(c3cnc(C(N)=O)c(Nc4ccc5c(c4)CCN(CC4CN(c6ccc7c(c6)C(=O)N(C6CCC(=O)NC6=O)C7=O)C4)C5)n3)C2)C1=O (some centres unmarked) [Compound 92]
### Response 1.14

### Prompt Try the compound Nc1cccc2c1C(=O)N(C1CCC(=O)NC1=O)C2=O (centres unmarked) [Pomalidomide, pomalidomide, reference compound]
### Response 1.03

### Prompt Try the compound CN1CCN([C@@H]2CCCN(c3cnc(C(N)=O)c(Nc4ccc5c(c4)CCN(C4CN(c6ccc7c(c6)C(=O)N(C6CCC(=O)NC6=O)C7=O)C4)C5)n3)C2)C1=O (some centres unmarked) [Compound 30]
### Response 1.01

* * *

Please respond with reported IL-2 Secretion Anti-CD3/Anti-CD28 Stimulation for every item in the list.
# System: primary human T cells
# Assay overview: T cell activation assay, IL-2 secretion (ELISA)
# Type: cell-based
# Condition details: 37 nM; fold-change of response relative to baseline
Enter the number alone.

### Prompt Dear colleague, I am looking for the recorded IL-2 Secretion Anti-CD3/Anti-CD28 Stimulation of the following molecule: NC(=O)c1ncc(N2CCCCC2)nc1Nc1ccc(C2CCN(C[C@@H]3CCN(c4ccc5c(c4)C(=O)N(C4CCC(=O)NC4=O)C5=O)C3)CC2)cc1 (stereo partly drawn)
### Response 3.63

### Prompt Try the molecule CN1CCN([C@@H]2CCCN(c3cnc(C(N)=O)c(Nc4ccc(N5CC6(C5)CN(c5ccc7c(c5)C(=O)N(C5CCC(=O)NC5=O)C7=O)C6)cc4)n3)C2)C1=O (stereo partly drawn)
### Response 1.66

### Prompt Try the molecule CN1CCN([C@@H]2CCCN(c3cnc(C(N)=O)c(Nc4ccc(C5CN(C6CCN(c7ccc8c(c7)C(=O)N(C7CCC(=O)NC7=O)C8=O)CC6)C5)cc4)n3)C2)C1=O (stereo partly drawn)
### Response 2.06

### Prompt Try the molecule Nc1cccc2c1C(=O)N(C1CCC(=O)NC1=O)C2=O (stereo not drawn) [Pomalidomide, pomalidomide, reference compound]
### Response 4.80

### Prompt Try the molecule C=CC(=O)N1CCC[C@@H](n2nc(-c3ccc(Oc4ccccc4)cc3)c3c(N)ncnc32)C1 [Ibrutinib, reference compound]
### Response 0.85

### Prompt Try the molecule CN1CCN([C@@H]2CCCN(c3cnc(C(N)=O)c(Nc4ccc(C5CCN(CCCNc6cccc7c6C(=O)N(C6CCC(=O)NC6=O)C7=O)CC5)cc4)n3)C2)C1=O (stereo partly drawn)
### Response 3.13
